Provenance of the data: paper PMC6595297

Assay: Phase I DDI study: pevonedistat plasma PK alone and with itraconazole
Format: in vivo, human
Details: human, plasma, intravenous, AUClast, geometric LS mean test condition (day 8), Pevonedistat 15 mg m^−2 + itraconazole, n = 6, value from n − 1 patients
Quantity measured: AUC(0-t)
Write the quantity with the unit trailing the number.

Input: Please report the measured AUC(0-t) for "NS(=O)(=O)OC[C@@H]1C[C@@H](n2ccc3c(N[C@H]4CCc5ccccc54)ncnc32)C[C@@H]1O"
Output: 1030 ng·h/mL

* * *

Experiment: Phase I DDI study: pevonedistat plasma PK alone and with itraconazole
Type: in vivo, human
Details: human, plasma, iv, t 1/2, mean (standard deviation), 15 mg m^−2 IV single dose, + itraconazole (day 8), n=6
Quantity measured: half-life (h)
Give the number; h is assumed, so skip it.

Input: Please report the measured half-life for NS(=O)(=O)OC[C@@H]1C[C@@H](n2ccc3c(N[C@H]4CCc5ccccc54)ncnc32)C[C@@H]1O [Pevonedistat]
Output: 11
